src = PubChem BioAssay AID1963860

Test system: CN0375-F725-PDC KRAS spheroid viability;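 further: spheroids exposed to agents for 7 days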
METHOD SUMMARY: Anticancer human tumor CN0375-F725-PDC patient-derived colon carcinoma cell line growth inhibition [KRAS2]
EXPERIMENTAL SETUP: second compound 0.1 µM; first compound 0.316 µM; hits give low values; spheroids with HUVEC and MSC
QUANTITY NAME: viability, T/C (%)
Give bare numbers, in %.

{"columns": ["COMPOUND", "viability, T/C (%)"],
 "data": [
  ["COC(=O)c1ccc2c(C(=Nc3ccc(N(C)C(=O)CN4CCN(C)CC4)cc3)c3ccccc3)c(O)[nH]c2c1 + CC1OCC2(CCN(c3cnc(Sc4ccnc(N)c4Cl)c(N)n3)CC2)C1N", 89.3],
  ["O=C(c1cc(Cc2n[nH]c(=O)c3ccccc23)ccc1F)N1CCN(C(=O)C2CC2)CC1 + COc1cc2nc(C)nc(NC(C)c3cc(N)cc(C(F)(F)F)c3)c2cc1OC1CCOC1", 98.4],
  ["CC1COCCN1c1cc(-c2ccnn2C)c2ccnc(-c3ccn[nH]3)c2n1 (stereo not given) + CNCc1ccccc1-c1csc(C(C)Nc2nc(C)nc3cc(OC)c(OC)cc23)c1", 76.2],
  ["COC(=O)c1ccc2c(C(=Nc3ccc(N(C)C(=O)CN4CCN(C)CC4)cc3)c3ccccc3)c(O)[nH]c2c1 + C=CC(=O)N1CCN(c2nc(OCC3CCCN3C)nc3c2CCN(c2cccc4cccc(C)c24)C3)CC1CC#N", 92.6]
]}

Qu. Need viability, T/C of CC(=O)OC12COC1CC(O)C1(C)C(=O)C(O)C3=C(C)C(OC(=O)C(O)C(NC(=O)OC(C)(C)C)c4ccccc4)CC(O)(C(OC(=O)c4ccccc4)C21)C3(C)C (stereo not given) + C=CC(=O)N1CCN(c2nc(OCC3CCCN3C)nc3c2CCN(c2cccc4cccc(C)c24)C3)CC1CC#N , thanks.
Ans. 87
